FYI, the data here is from patent US20240294651A1.

# measured target: T1, biotinylated CXCR4-virus like particle (Integral Molecular, Lot INT-1793B) (human, UniProt P61073 1-352, VLP biotinylated, sites not stated)
# T1 construct: also called hCXCR4 VLP; CXCR4 VLP
# T1 sequence (P61073 whole entry): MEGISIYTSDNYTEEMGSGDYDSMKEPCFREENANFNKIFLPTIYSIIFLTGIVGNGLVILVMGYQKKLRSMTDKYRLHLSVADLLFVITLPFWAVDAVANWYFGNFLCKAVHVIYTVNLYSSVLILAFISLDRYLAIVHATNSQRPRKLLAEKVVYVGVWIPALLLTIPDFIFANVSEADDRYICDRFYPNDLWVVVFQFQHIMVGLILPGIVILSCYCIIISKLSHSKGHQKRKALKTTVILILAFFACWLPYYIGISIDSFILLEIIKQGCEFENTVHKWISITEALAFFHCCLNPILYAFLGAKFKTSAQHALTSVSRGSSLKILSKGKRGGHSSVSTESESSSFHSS
# experiment description: SPR (Biacore 8K), biotinylated CXCR4 VLP captured on SA chip, Fab as analyte, 25 C, 1:1 model
Each entry below carries its recorded koff.
Hey, just the number and the unit after it is fine.

Recorded koff of CL-83083 Fab fragment (Fab, V domains shown, Purified Fab fragment) VH: EVQLVESGGGLVQPGGSLKLSCAASGFTFSGSAMHWVRQASGKGLEWVGRIRSKANKYATAYAASVKGRFTISRDDSKNTAYVQMKSLKTEDTAVYYCTWELSNYDILTGFYYGMDVWGQGTTVTVSS VL: QAGLTQPPSVSKGLRQTATLTCTGNSNNVGNLGAAWLQQHQGHPPKLLSYRNNNRPSGISERFFASRSGNTASLTITGLQPEDEADYYCSAWDSSLSAWVFGGGTKLTVL , please.
0.00102 s⁻¹

Param item: CL-82558 Fab fragment (Fab, V domains shown, Purified Fab fragment) VH: QVQLQESGPGLVKPSQTLSLTCTVSGGSISSGGYYWSWIRQVPGKGLEWIGYISYSGNTFYSPSLKSRVTISVDTSENKFSLRLTSVTAADTAVYFCARDRRIPMLRGVKGYYYGLDVWGQGTTVTVSS VL: DIVMTQSPLSLPVIPGEPASISCRSSQSLLHRNGYKYLDWYLQKPGQSPQLLIYLGSNRASGVPARFSGSGSGTDFTLKISRVEAEDVGVYYCMQALQTPWTFGQGTKVEIK
0.00155 s⁻¹

And what about the binder CL-82458 Fab fragment (Fab, V domains shown, Purified Fab fragment) VH: EVQLVESGGDLVQPGGSLRLSCAASGFTFYSYAMNWVRQAPGKGLKWVSGISGSGDITYYADSVKGRFTISRDNSKNTLYLQMHSLRPEDTAIYYCAKGQLERRYYKYYGMDVWGQGTTVTVSS VL: DIQMTQSPSSLSASVGDRVTITCRANQGIRNDLGWYQQKPGKAPKRLIYGASSLKSGVPSRFSGSGSGTEFTLTISSLQPEDFATYYCLQQNSYPLTFGGGTKVEIK ?
0.00111 s⁻¹

Moving on to CL-82574 Fab fragment (Fab, V domains shown, Purified Fab fragment) VH: QVQLVESGGGVVQPGRSLRLSCAASGFTFYSYGMHWVRQAPGKGLEWVAVIWYGGTNKYYADSVKGRFTISRDNSKNTLYLQMNSLTAEDTAVYYCARGQLERRRGGLNIWGQGTVVTVSS VL: DIQMTQSPSSLSASVGDRVTITCRASQGVRDDLGWYQQKPGKAPKRLIYAASSLQSGVPSRFSGSGSGTEFTLTISSLQPEDFATYYCLQHNSYPFTFGPGTKVDIK
0.000481 s⁻¹

What about this binder? CL-82658 Fab fragment (Fab, V domains shown, Purified Fab fragment) VH: QVQLVESGGGVVQPGRSLRLSCAASGFSFSSYGMHWVRQAPGKGLEWVAVISYDGSNKYYADSVKGRFTISRDNSKNTLYLQMNSLRGEDTAVYYCSKGSLTPRRGYYYSYGMDVWGQGTTVTVSS VL: DIQMTQSPSSLSASVGDRVTITCRASQGIRNDLSWYQQKPGKAPKRLIYAASSLQSGVPSRFSGSGSGTEFTLTISSLQPEDFATYYCLQHNGYPFTFGPGTKVDIK
0.000423 s⁻¹
